The values you see were collected from the supplement of paper PMC12317010.

# assay_procedure: collision cross section in nitrogen (drift tube, single-field); higher = larger gas-phase ion size;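 also: chemical standards at 10 µM analysed by drift tube IMS-QTOF MS in about 3.95 torr nitrogen, mean of duplicate injections differing ≤1%, mass error below 10 ppm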
# settings: ion type: [M+H]; ion source: APCI; ion mode: Positive
measured_endpoint: collision cross section in nitrogen (Å²)
Number in Å², nothing else.

Below, 2 compounds whose answers are already recorded.
{"compound": "O=C(O)c1cn(-c2ccc(F)cc2)c2cc(N3CCNCC3)c(F)cc2c1=O", "measured_endpoint": "collision cross section in nitrogen", "reported_measurement": 188.2}
{"compound": "CN(C)c1nc(=O)n(C2CCCCC2)c(=O)n1C", "measured_endpoint": "collision cross section in nitrogen", "reported_measurement": 163}

What the record says about `CNC[C@H](O)[C@@H](O)[C@H](O)[C@H](O)CO` : collision cross section in nitrogen is 141

Form: compound = `Cc1ccnc(N)c1` ; collision cross section in nitrogen = 118.1

The value of collision cross section in nitrogen measured for the compound `CN(C)c1ccc(C(c2ccccc2)c2ccc(N(C)C)cc2)cc1` turned out to be 199.9

----------
# assay_procedure: collision cross section in nitrogen (drift tube, single-field); higher = larger gas-phase ion size
# settings: ion type: [M+Na]; ion source: ESI; ion mode: Positive
Structures can show the parent of a compound that is named as a salt.
measured_endpoint: collision cross section in nitrogen (Å²)
Please respond with the number in Å² and leave the unit unwritten.

Here is how some compounds turned out for collision cross section in nitrogen.
{"compound": "CCN(CC)C(=O)c1cccc(C)c1", "collision cross section in nitrogen (Å²)": 160.2}
{"compound": "CCN(CC)C(=O)c1cc(S(=O)(=O)Cc2ccccc2)c(N2CCC(c3ccccc3)CC2)cc1N(CC)CCN(C)C [HMR1171 trifluoroacetate (1:1)]", "collision cross section in nitrogen (Å²)": 251.8}
{"compound": "O=C(OCCCCCCOC(=O)c1ccccc1)c1ccccc1 [Hexane-1,6-diyl dibenzoate]", "collision cross section in nitrogen (Å²)": 189.8}
{"compound": "O=C(O)c1cc(=O)c2c(OCC(O)COc3cccc4oc(C(=O)O)cc(=O)c34)cccc2o1 [Cromolyn sodium]", "collision cross section in nitrogen (Å²)": 211.8}
{"compound": "O=C(NCO)NCO", "collision cross section in nitrogen (Å²)": 151.7}
{"compound": "CNC(=O)Oc1ccc(N(C)C)c(C)c1", "collision cross section in nitrogen (Å²)": 155.8}
{"compound": "COc1ccc(-c2coc3cc(O)ccc3c2=O)cc1", "collision cross section in nitrogen (Å²)": 171.4}
{"compound": "CCCCSP(=O)(SCCCC)SCCCC", "collision cross section in nitrogen (Å²)": 194.4}

Just so you know, measured collision cross section in nitrogen for `NC(=O)N(O)[C@@H]1C=C[C@H](Oc2cccc(Oc3ccc(F)cc3)c2)C1` came out at 191.1

----------
Recorded collision cross section in nitrogen, one value per entry.
# assay_procedure: collision cross section in nitrogen (drift tube, single-field); higher = larger gas-phase ion size
# settings: ion type: [M+Na]; ion source: ESI; ion mode: Positive
Give just the number in Å²; leave the unit off.

Guide cases for collision cross section in nitrogen, answers given:
{"molecule": "Cc1ccccc1N=Nc1ccc(NC(=O)c2ccnn2C)c(C)c1", "collision cross section in nitrogen, Å²": 200.2}
{"molecule": "C1CC(COCC2CO2)CCC1COCC1CO1 (stereo not drawn)", "collision cross section in nitrogen, Å²": 160.1}
{"molecule": "COc1cc(-c2nc(NC(=O)c3cc4cc(C)cc(C)c4n3CC(=O)O)sc2CCC2CCCCC2)c(OC)cc1Cl", "collision cross section in nitrogen, Å²": 259.5}
{"molecule": "CCC(C)(NC(=O)c1cc(Cl)c(C)c(Cl)c1)C(=O)CCl (stereo not drawn) [Zoxamide]", "collision cross section in nitrogen, Å²": 188}
{"molecule": "CCCCOCCOCCO [2-(2-Butoxyethoxy)ethanol]", "collision cross section in nitrogen, Å²": 141.5}
{"molecule": "CN(CCO)CC(O)Cn1cnc2c1c(=O)n(C)c(=O)n2C (stereo not drawn) [Xanthinol niacinate]", "collision cross section in nitrogen, Å²": 175.7}

collision cross section in nitrogen recorded for this molecule, C#CCOS(=O)OC1CCCCC1Oc1ccc(C(C)(C)C)cc1 (stereo not drawn) [Propargite] , is 186.9

Looking up CC(C)N(C(=O)COc1nnc(C(F)(F)F)s1)c1ccc(F)cc1 [Flufenacet] , I found its collision cross section in nitrogen recorded as 187.5

collision cross section in nitrogen reported for this molecule `O=S(=O)(c1ccc2c(c1)CCCN2)N1CCC[C@@H]2CCCC[C@H]21` : 195.9

Record `CN(C)C(=O)NC1(c2ccccc2)CCN(CCC[C@]2(c3ccc(Cl)c(Cl)c3)CCCN(C(=O)c3ccccc3)C2)CC1` , field collision cross section in nitrogen: 256.5

Short answer for Cc1ccc(C(C)NC(=O)[C@@H](NC(=O)OC(C)C)C(C)C)cc1 (stereo partly drawn) [Iprovalicarb] : collision cross section in nitrogen was 183.5

Item: CCC[C@H](N[C@@H](C)C(=O)N1[C@H](C(=O)O)C[C@@H]2CCCC[C@@H]21)C(=O)OCC [Perindopril erbumine] | collision cross section in nitrogen: 196.4

Looking up CCOC(=O)N1CCC(=C2c3ccc(Cl)cc3CCc3cccnc32)CC1 [Loratadine] , I see its collision cross section in nitrogen listed as 195.1

Sample OC[C@@H](O)[C@H](O)[C@@H](O)[C@@H](O)CO [L-Glucitol] ; collision cross section in nitrogen observed: 142.9

Record summary for CC1CN(c2cc3c(cc2F)c(=O)c(C(=O)O)cn3-c2ccc(F)cc2F)CCN1 (stereo not drawn) [Temafloxacin] : reported collision cross section in nitrogen = 211.3

# collision cross section in nitrogen (molecule: Fc1ccccc1[C@@H](F)CO[C@H]1CC[C@H](Nc2[nH]cnc3nncc2-3)CC1 [MK-968] ) is 191.4

// NCCCN(CCO)CCO [2,2'-[(3-Aminopropyl)imino]diethanol] : collision cross section in nitrogen value = 135.8

collision cross section in nitrogen reported for this molecule `C=CC(=O)OCCn1c(=O)n(CCOC(=O)C=C)c(=O)n(CCOC(=O)C=C)c1=O` : 184.5

----------
Reported collision cross section in nitrogen values are given for each entry in this list.
# assay_procedure: collision cross section in nitrogen (drift tube, single-field); higher = larger gas-phase ion size
# settings: ion type: [M-H]; ion source: ESI; ion mode: Negative
Dear colleague, please return just the value in Å², with no unit written.

{"molecule": "CCCCc1nc(Cl)c(CO)n1Cc1ccc(-c2ccccc2-c2nnn[nH]2)cc1 [Losartan potassium]", "measure_unit": "Å²", "collision cross section in nitrogen": 203.4}

Briefly, collision cross section in nitrogen measured for CCC(C)(c1ccc(O)cc1)c1ccc(O)cc1 [Bisphenol B] : 165.8

Entry under test: O=C(O)c1ccccc1C(c1ccc(O)cc1)c1ccc(O)cc1 [Phenolphthalin] . Its collision cross section in nitrogen was 184.1

Consider CCCCNC(=O)NS(=O)(=O)c1ccc(N)cc1 [Carbutamide] . Its measured collision cross section in nitrogen is 165

Looking up CC(C)(C)OC(=O)c1ccccc1C(=O)O [tert-Butyl hydrogen phthalate] , I found its collision cross section in nitrogen recorded as 151.6

// field: collision cross section in nitrogen; key: O=c1[nH]c2ccc(S(=O)CCN3CCC(Cc4ccc(F)cc4)CC3)cc2o1 (stereo not drawn) [Besonprodil] ; value = 188.5

Item: O=C(O)C(F)(F)C(F)(F)C(F)(F)C(F)(F)C(F)(F)C(F)(F)C(F)(F)F [Perfluorooctanoic acid] | collision cross section in nitrogen: 157

Documented collision cross section in nitrogen of CC(C)c1c(C(=O)Nc2ccccc2)c(-c2ccccc2)c(-c2ccc(F)cc2)n1CC[C@@H](O)C[C@@H](O)CC(=O)O [Atorvastatin calcium] : 228.6

----------
# assay_procedure: collision cross section in nitrogen (drift tube, single-field); higher = larger gas-phase ion size
# settings: ion type: [M+H]; ion source: ESI; ion mode: Positive
# key: entry, value: collision cross section in nitrogen
API: value field is a number in Å²; no unit string.

{"compound": "COC(=O)Nc1nc2cc(S(=O)c3ccccc3)ccc2[nH]1 (stereo not drawn) [Oxfendazole]", "measure_unit": "Å²", "reported_measurement": 178.2}
{"compound": "Cn1c(=S)[nH]c2ccccc21 [1-Methyl-1,3-dihydro-2H-benzimidazole-2-thione]", "measure_unit": "Å²", "reported_measurement": 130.9}
{"compound": "CCNc1nc(NC(C)CC)nc(OC)n1 (stereo not drawn) [Secbumeton]", "measure_unit": "Å²", "reported_measurement": 155.2}
{"compound": "CC1(C)CCC(=Cc2ccc(Cl)cc2)C1(O)Cn1cncn1 (stereo not drawn) [Triticonazole]", "measure_unit": "Å²", "reported_measurement": 180.6}
{"compound": "CC(=O)Nc1ccc(N=Nc2cc(C)ccc2O)cc1 [C.I. Disperse Yellow 3]", "measure_unit": "Å²", "reported_measurement": 168.2}
{"compound": "CCn1c2ccccc2c2cc([N+](=O)[O-])ccc21 [9-Ethyl-3-nitro-9H-carbazole]", "measure_unit": "Å²", "reported_measurement": 152}

Notebook: O=C1CCCCCCCCCCCN1 [Azacyclotridecan-2-one] , collision cross section in nitrogen read as 148.8

According to the records, this compound COC(=O)C(C)Oc1ccc(Oc2ncc(C(F)(F)F)cc2Cl)cc1 (stereo not drawn) [Haloxyfop-methyl] displays collision cross section in nitrogen of 184.4
